Entries and their SPOT intensity values follow.
Target: T1, Bzz1-1, P38822
T1 sequence (P38822 478-572, looked up): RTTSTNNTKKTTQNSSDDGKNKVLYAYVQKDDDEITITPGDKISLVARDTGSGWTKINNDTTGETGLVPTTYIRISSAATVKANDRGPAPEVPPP
Assay: SPOT array
Conditions: median of control spots 4446
Respond numerically, and do not add a unit to the figure.

Example entries and their recorded answers appear below.
{"columns": ["Binder", "Reported property", "Reported"],
 "data": [
  ["LSKRLPLRFPEHTSS", "SPOT intensity", 0],
  ["MKRSRPSRSIPYTTP", "SPOT intensity", 1],
  ["KRKRFNLLLPKPYLT", "SPOT intensity", 3],
  ["TKHKAPPPPPPTAET", "SPOT intensity", 762],
  ["RTIRKLPLMSLSEYF", "SPOT intensity", 2],
  ["GPPPPLPPPLFPSSS", "SPOT intensity", 0],
  ["LKVTPGRRAPTISKI", "SPOT intensity", 0],
  ["DKSRPPRPPPKPLHL", "SPOT intensity", 36]
]}

# lookup: SPOT intensity of HHKRRPTTIDVPGLT
0

Which SPOT intensity reading was recorded for the binder QLLNPNRRAPRRPLS ?
0

Cited source: paper PMC2756588
